test system: Staphylococcus epidermidis; test: Susceptibility (MIC) of S. epidermidis isolates used in CVC studies; conditions: strain 1320 Staphylococcus epidermidis
MIC values by entry
Write it as a number; the unit µg/mL goes unstated.

Known MIC results, listed for orientation:
mol=CC(=O)NC[C@H]1CN(c2ccc(N3CCOCC3)c(F)c2)C(=O)O1 reported=1
mol=CO[C@H]1/C=C/O[C@@]2(C)Oc3c(C)c(O)c4c(O)c(c(/C=N/N5CCN(C)CC5)c(O)c4c3C2=O)NC(=O)/C(C)=C\C=C\[C@H](C)[C@H](O)[C@@H](C)[C@@H](O)[C@@H](C)[C@H](OC(C)=O)[C@@H]1C reported=0.008
mol=CCCCCCCCCC(=O)N[C@@H](Cc1c[nH]c2ccccc12)C(=O)N[C@H](CC(N)=O)C(=O)N[C@@H](CC(=O)O)C(=O)N[C@@H]1C(=O)NCC(=O)N[C@@H](CCCN)C(=O)N[C@@H](CC(=O)O)C(=O)N[C@H](C)C(=O)N[C@@H](CC(=O)O)C(=O)NCC(=O)N[C@H](CO)C(=O)N[C@@H]([C@H](C)CC(=O)O)C(=O)N[C@@H](CC(=O)c2ccccc2N)C(=O)O[C@@H]1C reported=0.5

Note: attention shifts to another entry.
Q: Given the entry "CN[C@H](CC(C)C)C(=O)N[C@H]1C(=O)N[C@@H](CC(N)=O)C(=O)N[C@H]2C(=O)N[C@H]3C(=O)N[C@H](C(=O)N[C@H](C(=O)O)c4cc(O)cc(O)c4-c4cc3ccc4O)[C@H](O)c3ccc(c(Cl)c3)Oc3cc2cc(c3O[C@@H]2O[C@H](CO)[C@@H](O)[C@H](O)[C@H]2O[C@H]2C[C@](C)(N)[C@H](O)[C@H](C)O2)Oc2ccc(cc2Cl)[C@H]1O" , report its measured MIC.
Result: 1
